I'd appreciate it if you could supply self-cleavage kobs at 640 uM GlcN6P values for the items below.
B1: glmS ribozyme (parent)
chain: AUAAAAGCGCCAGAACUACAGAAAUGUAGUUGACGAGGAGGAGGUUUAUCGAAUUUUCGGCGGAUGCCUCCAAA

# Variants of: B1
# method_notes: self-cleavage kobs at 640 uM GlcN6P; higher = faster cleavage; RNA array
# conditions: with glucosamine-6-phosphate
This sample holds only a part of the variants without activity.
Output spec: scalar in s⁻¹, unitless text.

In: Query self-cleavage kobs at 640 uM GlcN6P for A14C A15G U69A
Out: 9.09e-05

In: Query self-cleavage kobs at 640 uM GlcN6P for A12G A39G C70G
Out: 0.00011

In: Query self-cleavage kobs at 640 uM GlcN6P for U45C U54A
Out: 0.00072

In: Query self-cleavage kobs at 640 uM GlcN6P for U46G U65A
Out: 0.000703

In: Query self-cleavage kobs at 640 uM GlcN6P for U45C A53G
Out: 0.000905

In: Query self-cleavage kobs at 640 uM GlcN6P for A39G G43U
Out: 5.98e-05

In: Query self-cleavage kobs at 640 uM GlcN6P for A14G A23C A64U
Out: 8.79e-05

In: Query self-cleavage kobs at 640 uM GlcN6P for C34U U69G
Out: 0.000467

In: Query self-cleavage kobs at 640 uM GlcN6P for C11U U56A C70U
Out: 0.000508

In: Query self-cleavage kobs at 640 uM GlcN6P for A12C C70A
Out: 6.98e-05

In: Query self-cleavage kobs at 640 uM GlcN6P for U31C G41A
Out: 6.76e-05

In: Query self-cleavage kobs at 640 uM GlcN6P for A39U U55G
Out: 0.00371

In: Query self-cleavage kobs at 640 uM GlcN6P for G13A U30G
Out: 3.9e-05

In: Query self-cleavage kobs at 640 uM GlcN6P for C11A C16A C50G
Out: 0.000146

In: Query self-cleavage kobs at 640 uM GlcN6P for G29A U47G
Out: 0.000161

In: Query self-cleavage kobs at 640 uM GlcN6P for G29A U46C
Out: 6.39e-05

In: Query self-cleavage kobs at 640 uM GlcN6P for G29A U49A A53G C68A
Out: 7.05e-05

In: Query self-cleavage kobs at 640 uM GlcN6P for G59A
Out: 2.2e-05

In: Query self-cleavage kobs at 640 uM GlcN6P for A12U A42G
Out: 0.0249

In: Query self-cleavage kobs at 640 uM GlcN6P for A3C U45A U65A
Out: 0.00508

In: Query self-cleavage kobs at 640 uM GlcN6P for G38U U56G C70A
Out: 0.000333

In: Query self-cleavage kobs at 640 uM GlcN6P for U45A U69A
Out: 9.56e-05
